target: PPAT (phosphoribosyl pyrophosphate amidotransferase) (Homo sapiens, UniProt Q06203); test: glutamate production from glutamine and PRPP, glutamate assay kit; assay type: biochemical
Sequence (Q06203 12-517): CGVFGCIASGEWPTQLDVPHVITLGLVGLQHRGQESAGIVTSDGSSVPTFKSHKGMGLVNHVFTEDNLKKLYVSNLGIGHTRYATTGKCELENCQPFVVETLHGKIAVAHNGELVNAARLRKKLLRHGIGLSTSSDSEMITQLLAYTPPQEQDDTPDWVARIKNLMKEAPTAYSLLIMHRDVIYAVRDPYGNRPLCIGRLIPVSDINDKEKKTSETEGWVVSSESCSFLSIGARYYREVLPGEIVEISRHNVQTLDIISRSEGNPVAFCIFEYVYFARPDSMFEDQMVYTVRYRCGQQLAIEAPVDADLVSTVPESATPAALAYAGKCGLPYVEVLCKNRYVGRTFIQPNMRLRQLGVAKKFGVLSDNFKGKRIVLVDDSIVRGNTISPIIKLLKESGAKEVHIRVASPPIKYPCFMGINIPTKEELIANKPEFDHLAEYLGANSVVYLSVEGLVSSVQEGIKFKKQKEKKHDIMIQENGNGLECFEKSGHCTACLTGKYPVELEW
Readout Label: IC50 (µM)
Numbers only; they are read as µM.

Qu. Any idea what its IC50 is? The compound is Cc1cc2nc3c(=O)[nH]c(=O)nc-3n(C[C@H](O)[C@H](O)[C@H](O)COP(=O)(O)O)c2cc1C [ZINC8551105, riboflavin 5′-monophosphate]
Ans. 7.5

Measured values drawn from paper PMC9549714 for this set.
